# experimental_target: 72 kDa type IV collagenase (Homo sapiens, UniProt P08253)
# Sequence (P08253 whole entry): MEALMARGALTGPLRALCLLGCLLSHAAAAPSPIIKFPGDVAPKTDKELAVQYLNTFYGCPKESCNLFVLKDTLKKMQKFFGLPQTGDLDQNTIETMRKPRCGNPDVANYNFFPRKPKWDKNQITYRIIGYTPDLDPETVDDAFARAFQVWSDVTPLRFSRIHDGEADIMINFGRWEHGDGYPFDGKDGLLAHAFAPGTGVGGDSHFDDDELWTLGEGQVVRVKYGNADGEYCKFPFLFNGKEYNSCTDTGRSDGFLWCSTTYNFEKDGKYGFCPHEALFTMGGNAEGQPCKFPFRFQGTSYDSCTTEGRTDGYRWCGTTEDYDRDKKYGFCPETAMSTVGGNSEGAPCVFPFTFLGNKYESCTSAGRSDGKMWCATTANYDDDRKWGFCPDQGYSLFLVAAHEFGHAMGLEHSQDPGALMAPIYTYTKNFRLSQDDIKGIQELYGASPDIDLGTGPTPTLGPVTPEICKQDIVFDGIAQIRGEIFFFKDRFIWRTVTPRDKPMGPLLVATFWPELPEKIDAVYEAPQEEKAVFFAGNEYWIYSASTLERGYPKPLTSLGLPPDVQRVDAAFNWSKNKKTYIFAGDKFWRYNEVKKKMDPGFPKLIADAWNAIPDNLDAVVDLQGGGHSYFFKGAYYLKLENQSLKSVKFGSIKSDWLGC
assay_endpoint: IC50 (nM)

(1) Cc1cc(C(=O)N(C)C)ccc1C1CCN(S(=O)(=O)CC2(C(=O)NO)CCN(C(=O)O[C@H]3CCOC3)CC2)CC1
(2) Cc1cc(C2CCN(S(=O)(=O)CC3(C(=O)NO)CCN(C(=O)O[C@H]4CCOC4)CC3)CC2)cc(C)c1C#N
input: Select one. Lower IC50: 1 or 2 Write down the label of the entry you select.
output: 2

(I) Cc1cc(C#N)ccc1C1CCN(S(=O)(=O)CC2(C(=O)NO)CCN(C(=O)OC[C@@H]3CCCN3)CC2)CC1
(II) N#Cc1ccc(C2CCN(S(=O)(=O)CC3(C(=O)NO)CCN(C(=O)O[C@H]4CCOC4)CC3)CC2)cc1
input: Could you tell me which of these two has the smaller IC50 figure? First: I Second: II Give the label under which the chosen entry appears.
output: II

----------
# experimental_target: 72 kDa type IV collagenase (Homo sapiens)
assay_endpoint: IC50 (µM)

input: Recorded IC50 for "Cc1cc(C)cc(C2CCN(S(=O)(=O)CC3(C(=O)NO)CCN(C(=O)O[C@H]4CCOC4)CC3)CC2)c1" with 72 kDa type IV collagenase (Homo sapiens), please?
output: 0.315

(a) O=C(O[C@H]1CCOC1)N1CCC(CS(=O)(=O)N2CCC(c3ccccc3)CC2)(C(=O)NO)CC1
(b) Cc1cc(C#N)ccc1C1CCN(S(=O)(=O)CC2(C(=O)NO)CCN(C(=O)O[C@H]3CCOC3)CC2)CC1
input: Two entries are listed, a and b . Which one carries the higher IC50? State the label of the item chosen.
output: b

----------
# experimental_target: Disintegrin and metalloproteinase domain-containing protein 10 (Homo sapiens)
# Sequence (O14672 whole entry): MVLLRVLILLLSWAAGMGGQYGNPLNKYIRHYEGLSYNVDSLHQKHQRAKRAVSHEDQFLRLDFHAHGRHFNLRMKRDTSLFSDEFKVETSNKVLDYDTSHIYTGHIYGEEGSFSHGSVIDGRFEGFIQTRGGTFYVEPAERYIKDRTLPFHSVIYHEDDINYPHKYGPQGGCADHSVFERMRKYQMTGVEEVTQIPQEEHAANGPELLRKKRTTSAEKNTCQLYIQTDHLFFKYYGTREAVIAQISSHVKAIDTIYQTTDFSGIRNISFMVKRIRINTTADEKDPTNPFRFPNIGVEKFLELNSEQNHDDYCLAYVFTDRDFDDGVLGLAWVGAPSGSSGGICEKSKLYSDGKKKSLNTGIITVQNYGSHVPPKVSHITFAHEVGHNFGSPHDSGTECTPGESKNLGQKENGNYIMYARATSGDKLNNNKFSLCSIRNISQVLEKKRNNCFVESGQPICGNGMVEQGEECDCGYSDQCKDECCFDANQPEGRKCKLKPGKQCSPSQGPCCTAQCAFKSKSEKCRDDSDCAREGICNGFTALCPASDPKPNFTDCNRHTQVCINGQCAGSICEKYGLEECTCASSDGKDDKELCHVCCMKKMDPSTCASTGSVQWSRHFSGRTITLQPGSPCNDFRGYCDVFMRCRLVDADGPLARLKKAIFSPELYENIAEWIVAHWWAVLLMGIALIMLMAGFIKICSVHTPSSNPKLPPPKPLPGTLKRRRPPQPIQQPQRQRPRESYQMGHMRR
assay_endpoint: IC50 (nM)

(A) Cc1cc(C#N)ccc1C1=CCN(S(=O)(=O)CC2(C(=O)NO)CCN(C(=O)OC[C@@H]3CCCN3)CC2)CC1
(B) Cc1ccccc1C1=CCN(S(=O)(=O)CC2(C(=O)NO)CCN(C(=O)O[C@H]3CCOC3)CC2)CC1
input: Please indicate which has the smaller reported IC50: A , or B . Refer to your chosen item by its label in the answer.
output: B

(A) Cc1cc(C#N)ccc1C1CCN(S(=O)(=O)CC2(C(=O)NO)CCN(C(=O)O[C@H]3CCOC3)CC2)CC1
(B) Cc1ccccc1C1CCN(S(=O)(=O)CC2(C(=O)NO)CCN(C(=O)O[C@H]3CCOC3)CC2)CC1
input: Between these two entries, A and B , state which has the higher IC50. Reply briefly: the label of your chosen item.
output: B

(1) Cc1ccccc1C1CCN(S(=O)(=O)CC2(C(=O)NO)CCN(C(=O)OC3CCNC3)CC2)CC1 (stereo not drawn)
(2) N#Cc1ccc(C2CCN(S(=O)(=O)CC3(C(=O)NO)CCN(C(=O)O[C@H]4CCOC4)CC3)CC2)cc1
input: Which numeric IC50 is bigger, that of 1 or that of 2 ? Lab log: write the label of the selected item as the result.
output: 2
(2: 39 nM, 1: 18 nM)

(a) Cc1cc(F)ccc1C1CCN(S(=O)(=O)CC2(C(=O)NO)CCN(C(=O)O[C@H]3CCOC3)CC2)CC1
(b) O=C(O[C@H]1CCOC1)N1CCC(CS(=O)(=O)N2CC=C(c3ccccc3)C2)(C(=O)NO)CC1
input: For the pair a and b , which entry has the numerically smaller recorded IC50? Field: selected label. Fill in the label of the entry you choose.
output: a

----------
# experimental_target: Disintegrin and metalloproteinase domain-containing protein 10 (Homo sapiens)
assay_endpoint: IC50 (µM)

input: Param item = "Cc1cc(C2CCN(S(=O)(=O)CC3(C(=O)NO)CCN(C(=O)O[C@H]4CCOC4)CC3)CC2)cc(C)c1C#N" ; retrieve measured IC50.
output: 0.057

input: Given the compound "O=C(O[C@H]1CCOC1)N1CCC(CS(=O)(=O)N2CCN(c3ccccc3)CC2)(C(=O)NO)CC1" , what is its reported IC50?
output: 0.015

input: Look up IC50: "Cc1cc(C#N)ccc1C1=CCN(S(=O)(=O)CC2(C(=O)NO)CCN(C(=O)O[C@H]3CCOC3)CC2)CC1"
output: 0.107

(P) Cc1cc(C#N)ccc1C1CCN(S(=O)(=O)CC2(C(=O)NO)CCN(C(=O)OC3CCNC3)CC2)CC1 (stereo not drawn)
(Q) O=C(O[C@H]1CCOC1)N1CCC(CS(=O)(=O)N2CCC(c3ccccc3)CC2)(C(=O)NO)CC1
(R) O=C(O[C@H]1CCOC1)N1CCC(CS(=O)(=O)N2CCC(c3ccccc3F)CC2)(C(=O)NO)CC1
(S) Cc1ccccc1N1CCN(S(=O)(=O)CC2(C(=O)NO)CCN(C(=O)O[C@H]3CCOC3)CC2)CC1
input: Sort the compounds on IC50; start with the lowest figure. The reply should contain the labels ordered as requested.
output: P, Q, R, S

----------
# experimental_target: Disintegrin and metalloproteinase domain-containing protein 10 (Homo sapiens, UniProt O14672)
# Sequence (O14672 whole entry): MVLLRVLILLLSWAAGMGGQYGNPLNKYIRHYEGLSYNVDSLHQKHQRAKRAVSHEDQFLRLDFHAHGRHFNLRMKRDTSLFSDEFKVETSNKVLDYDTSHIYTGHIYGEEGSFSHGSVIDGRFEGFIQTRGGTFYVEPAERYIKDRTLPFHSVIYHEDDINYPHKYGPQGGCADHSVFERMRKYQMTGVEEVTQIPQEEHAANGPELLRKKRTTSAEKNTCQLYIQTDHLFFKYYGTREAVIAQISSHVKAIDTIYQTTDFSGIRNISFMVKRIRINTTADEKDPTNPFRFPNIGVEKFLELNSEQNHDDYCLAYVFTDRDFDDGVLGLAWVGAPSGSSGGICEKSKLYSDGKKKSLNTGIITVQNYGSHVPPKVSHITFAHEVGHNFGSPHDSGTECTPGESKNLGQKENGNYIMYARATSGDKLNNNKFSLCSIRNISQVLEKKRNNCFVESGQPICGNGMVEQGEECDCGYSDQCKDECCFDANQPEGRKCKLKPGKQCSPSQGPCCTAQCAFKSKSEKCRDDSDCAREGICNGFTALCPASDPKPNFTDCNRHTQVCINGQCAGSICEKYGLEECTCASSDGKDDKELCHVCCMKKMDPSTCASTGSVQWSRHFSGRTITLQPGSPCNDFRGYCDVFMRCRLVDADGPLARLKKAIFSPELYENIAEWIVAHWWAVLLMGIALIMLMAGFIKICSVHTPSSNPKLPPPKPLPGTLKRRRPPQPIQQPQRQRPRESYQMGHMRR
# assay_explanation: Inhibition of HER2 sheddase in human BT474 cells
# Type: cell-based, BT-474
pIC50: −log10 of the molar value.
assay_endpoint: pIC50

The cases that follow already have their pIC50 on record.
input: Record request: pIC50 value, item Cc1ccccc1C1CCN(S(=O)(=O)CC2(C(=O)NO)CCN(C(=O)OC3COCC3(C)C)CC2)CC1 (stereo not given)
output: 7.85

input: Please give the measured pIC50 for this compound: "O=C(O[C@H]1CCOC1)N1CCC(CS(=O)(=O)N2CC=C(c3ccccc3)CC2)(C(=O)NO)CC1"
output: 8.15

(A) O=C(O[C@H]1CCOC1)N1CCC(CS(=O)(=O)N2CCC(c3ccccc3F)CC2)(C(=O)NO)CC1
(B) O=C(O[C@H]1CCOC1)N1CCC(CS(=O)(=O)N2CCC(c3ccccc3)CC2)(C(=O)NO)CC1
input: # returns the entry with the larger pIC50; inputs A and B Your choice should be expressed through its label.
output: B
